- Test system: BDF1 mice, B16 melanoma ip, median survival T/C
- assay details: NCI In Vivo Anticancer Drug Screen. Data for tumor model B16 Melanoma (intraperitoneal) in B6D2F1 (BDF1) mice
- test settings: endpoint: median survival time; dose: 6.25 mg/kg/injection; schedule: Q04DX003 (ip); vehicle: Klucel (hydroxypropylcellulose) (HPC); higher = longer survival
Toxic doses and inconclusive results are not listed.

mol | T/C
C1CC[N-]CC1.C1CC[N-]CC1.O=C(O)C(=O)O.[Pt+2] | 100 % of control
Cc1cc(C(C)C)cc(C(C)C)c1 | 102 % of control
ClCCN(CCCl)CCN1c2ccccc2Sc2ccccc21 | 115 % of control
O=Nc1ccc2cc(O)ccc2c1O | 102 % of control
